Target: C-Raf kinase (Homo sapiens, UniProt P04049, Y340D/Y341D)
Construct: Y340D,; GST (N); purchased Sigma
Sequence (P04049 307-648 Y340D/Y341D): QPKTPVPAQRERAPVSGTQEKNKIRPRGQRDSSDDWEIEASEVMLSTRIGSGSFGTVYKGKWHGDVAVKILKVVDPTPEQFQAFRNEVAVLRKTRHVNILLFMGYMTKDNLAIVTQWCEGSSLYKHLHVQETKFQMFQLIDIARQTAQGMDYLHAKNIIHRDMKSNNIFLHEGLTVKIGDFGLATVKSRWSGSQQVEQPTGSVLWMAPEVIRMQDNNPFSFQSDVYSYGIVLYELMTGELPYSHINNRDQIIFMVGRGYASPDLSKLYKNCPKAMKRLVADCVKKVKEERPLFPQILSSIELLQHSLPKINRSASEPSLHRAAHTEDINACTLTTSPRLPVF
Experiment: Biochemical assay for C-Raf.1 (coupled pyruvate kinase/lactate dehydrogenase)
Conditions: read-out: CRAF.1 IC50
Below, each of the molecules is paired with its reported IC50 value.

Solved cases below.
>  <molecule>
Cc1cc(F)c(NC(=O)NCC(C)C)cc1-c1cc(OCCO)nc(-c2ccnc(NC(=O)C3CC3)c2)c1 [Example 99]

>  <result>
≤ 100 nM

$$$$
>  <molecule>
Cc1cc(F)c(NC(=O)NCCC(C)(C)F)cc1-c1nccc(-c2ccnc(NC(=O)C3CC3)c2)n1 [Example 114]

>  <result>
≤ 100 nM

$$$$
>  <molecule>
Cc1cc(F)c(NC(=O)NCCC(C)(C)C#N)cc1-c1cc(N2CCOCC2)nc(N2CCOCC2)c1 [Example 22]

>  <result>
≤ 100 nM

$$$$
>  <molecule>
COC(C)(C)CCNC(=O)Nc1ccc(C)c(-c2cc(-c3ccnc(NC(C)=O)c3)n(C)c(=O)c2)c1 [Example 60]

>  <result>
100 to 500 nM

$$$$
>  <molecule>
Cc1ncc(NC(=O)NCCC2(C)CC2)cc1-c1cc(OCCO)nc(-c2ccnc3c2CC(=O)N3)c1 [Example 112]

>  <result>
≤ 100 nM

$$$$

-- ask Please provide the recorded IC50 for CC(=O)Nc1cc(-c2cc(-c3cc(NC(=O)N[C@H]4C[C@](C)(F)C4)ccc3C)cc(OCCO)n2)ccn1 [Example 49] , tested on C-Raf kinase (Homo sapiens, UniProt P04049, Y340D/Y341D).
-- reply ≤ 100 nM

-- ask Now give it for COC(C)(C)CCNC(=O)Nc1ccc(C)c(-c2cc(-c3cnn(C4CCNCC4)c3)nc(N3CCOCC3)c2)c1 [Example 46] too.
-- reply 100 to 500 nM

-- ask Now give it for CC(=O)Nc1cc(-c2cc(-c3cc(NC(=O)NCCC4(C)CC4)c(F)cc3C)ccn2)ccn1 [Example 2] too.
-- reply 100 to 500 nM

Source of measurements: patent US20230357179A1
